# assayed target: Plasmepsin-2 (PM-2; Plm II) (Plasmodium falciparum (isolate HB3))
# Sequence (P46925 125-453 limits assumed): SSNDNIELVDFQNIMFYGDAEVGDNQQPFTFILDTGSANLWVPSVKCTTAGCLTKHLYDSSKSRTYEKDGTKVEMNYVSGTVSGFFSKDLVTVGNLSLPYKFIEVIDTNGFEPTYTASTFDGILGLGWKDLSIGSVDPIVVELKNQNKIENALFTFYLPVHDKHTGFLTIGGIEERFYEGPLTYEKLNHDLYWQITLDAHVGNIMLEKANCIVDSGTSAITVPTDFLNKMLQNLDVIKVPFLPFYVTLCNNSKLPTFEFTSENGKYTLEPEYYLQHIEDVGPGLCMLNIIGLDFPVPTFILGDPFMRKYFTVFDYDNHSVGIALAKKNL
# assay overview: Plasmepsin-2 enzyme inhibition assay
# Format: biochemical
# study conditions: Table 13; read-out: PM-2 IC50
Kindly state IC50 for each of the entries shown.
Answers are plain numbers, in nM.

Some molecules with recorded IC50:
molecule | readout unit | recorded measurement
COc1ccc(C2(C3CC3)NC(=N)N(C3CCOCC3)C2=O)cc1-c1cccc(C#N)c1 (stereo not drawn) | nM | 51.7
CCOc1ccc(C2(c3ccc(OCC)cc3)NC(=N)N(C3CCCCC3)C2=O)cc1 | nM | 6.87
COc1ccc(C2(C3CCCCC3)NC(=N)N(C3CCOCC3)C2=O)cc1 (stereo not drawn) | nM | 58.1
COc1cccc(-c2cccc(C3(c4ccccc4)NC(=N)N(C4CCCCC4)C3=O)c2)c1 (stereo not drawn) | nM | 33.1
N=C1NC(c2ccccc2)(c2cccc(-c3cccnc3)c2)C(=O)N1C1CCCCC1 (stereo not drawn) | nM | 13

Let us examine a further case.
Task item: Could you tell me which IC50 is on file for `N=C1NC(c2ccccc2)(c2ccccc2)C(=O)N1C1CCCCC1` ?
Reply: 28.7
